Test system: Fibroblast
Experiment: Multiplex assay against human fibroblast
Assay type: toxicity, cell-based
Conditions: 12 h, 10 µM, compound concentration 10 uM, replicate 1
Quantity name: Total Cell Count
One number for each entry.

Record excerpt, results attached:
COc1ccc2c(c1OCc1ccccc1)C[C@@H](C(=O)O)N(C(=O)C(c1ccccc1)c1ccccc1)C2 [OLODANRIGAN]
140
Cl.Cl.OCCOCCN1CCN(C(c2ccccc2)c2ccc(Cl)cc2)CC1 (configuration not stated) [HYDROXYZINE HYDROCHLORIDE]
247
O=C(Nc1cc(-c2ccccc2)nn1-c1ccccc1F)c1ccc([N+](=O)[O-])cc1
170

Go through the list and state Total Cell Count for each entry.
1. Cn1cc(C(=O)OCC2CCN(CCNS(C)(=O)=O)CC2)c2ccccc21
2. C=CCN1C[C@H](C(=O)N(CCCN(C)C)C(=O)NCC)C[C@@H]2c3cccc4[nH]cc(c34)C[C@H]21 [CABERGOLINE]
3. CN1CCN2c3ccccc3Cc3ccccc3C2C1.Cl (configuration not stated) [MIANSERIN HYDROCHLORIDE]
4. CN1C[C@H](C(=O)N[C@]2(C)O[C@@]3(O)[C@@H]4CCCN4C(=O)[C@H](Cc4ccccc4)N3C2=O)C[C@@H]2c3cccc4[nH]cc(c34)C[C@H]21.CS(=O)(=O)O [DIHYDROERGOTAMINE MESYLATE]
5. CCc1nn2c(C)cc(C)nc2c1Cc1ccc(-c2nnc(C3CCNCC3)o2)cc1
6. Nc1nc(CC(=O)Nc2ccc(CCNC[C@H](O)c3ccccc3)cc2)cs1 [MIRABEGRON]
7. O=C(O)CCC/C=C\CC1C(O)CC(O)C1/C=C/C(O)COc1cccc(Cl)c1 (configuration not stated) [CLOPROSTENOL]

Response line:
207
248
126
92
188
171
212

Go through the list and state Total Cell Count for each entry.
1. COc1cc2nc(N3CCN(C(=O)COc4c(OC)cccc4C(C)C)CC3)nc(N)c2cc1OC.Cl.Cl
2. CC(F)(F)CN1CCOc2c(nn(-c3ccccc3Cl)c2-c2ccc(Cl)cc2)C1=O
3. COc1cc(OC2CCN(C(C)=O)CC2)ccc1C(=O)N1CCC(N2C(=O)OCc3ccccc32)CC1
4. OCCCNc1cc(-c2ccnc(Nc3cccc(Cl)c3)n2)ccn1
5. Cc1cc(NC(=O)NCCN2CCC(O)(Cc3ccccc3)CC2)c2ccccc2n1 [PALOSURAN]
6. CCCCCCNC(=O)Nc1ccc(S(=O)(=O)Nc2ccc(CCNC[C@H](O)COc3ccc(O)cc3)cc2)cc1 [L-755507]
7. N[C@](CC1c2ccccc2Oc2ccccc21)(C(=O)O)[C@H]1C[C@@H]1C(=O)O

Response line:
1: 346; 2: 109; 3: 161; 4: 136; 5: 178; 6: 218; 7: 203

---

Provide the recorded Population Mitochondria Different-Phenotype (%) for the entries that follow.
Tested on: HEK-293T
Experiment: Multiplex assay against HEK293T
Format: toxicity, cell-based
Conditions: human, 48 h, 10 µM, compound concentration 10 uM, replicate 2
Give me the value, and tack the unit on after it.

CC(C)(C)c1ccc(CSc2cnn(C(C)(C)C)c(=O)c2Cl)cc1
48%
COC(c1ccccc1)(c1ccccc1)[C@H](Oc1nc(C)cc(C)n1)C(=O)O
27%
Cl.Cl.OCCOCCN1CCN(C(c2ccccc2)c2ccc(Cl)cc2)CC1 (stereo unspecified) [HYDROXYZINE HYDROCHLORIDE]
53%
C[C@@H]1CC(=O)Nc2cccc(-c3ccc4c(c3)c(-c3cnn(C)c3)nn4C)c2N1
53%
Cc1cc(-c2ccc3c(c2)CC[C@H]3N2CC3(CCN(C(=O)Cc4cn5cc(C)sc5n4)CC3)C2)ncn1
32%

Go through the list and state Population Mitochondria Different-Phenotype (%) for each entry.
1. COc1cc(C(=O)N2CC[C@@H](O)[C@@H](N)C2)cc2nc(-c3cc4ccccc4n3CC3CC3)n(C)c12.Cl
2. CC(C)(O)C(=O)N1CCN(c2ccc(C(F)(F)F)c(C3=C(c4c[nH]c5ccccc45)C(=O)NC3=O)c2)CC1
3. CCCCCCNC(=O)Nc1ccc(S(=O)(=O)Nc2ccc(CCNC[C@H](O)COc3ccc(O)cc3)cc2)cc1
4. CN1CCN2c3ccccc3Cc3ccccc3C2C1.Cl (stereo unspecified) [MIANSERIN HYDROCHLORIDE]

Response line:
87%
71%
47%
14%

---

System: Fibroblast
Experiment: Multiplex assay against human fibroblast
Assay type: toxicity, cell-based
Details: 12 h, 10 µM, compound concentration 10 uM, replicate 2
Provide the recorded Population Membrane Permeable-Phenotype (%) for the entries that follow.
Give bare numbers, in %.

Record excerpt, results attached:
Cc1nn(C)c2nc(NNC(=O)Nc3cc(Cl)nc(Cl)c3)cc(C(C)C)c12
5
COc1ccc2c(c1OCc1ccccc1)C[C@@H](C(=O)O)N(C(=O)C(c1ccccc1)c1ccccc1)C2 [OLODANRIGAN]
6
Cc1ccc(OCC(O)C(C)NC(C)C)c2c1CCC2.Cl (centres undefined)
7
Nc1nc(CC(=O)Nc2ccc(CCNC[C@H](O)c3ccccc3)cc2)cs1 [MIRABEGRON]
1
CSc1nc(NC2CCCC2)c([N+](=O)[O-])c(NC2CCCC2)n1 [GS-39783]
4

Go through the list and state Population Membrane Permeable-Phenotype (%) for each entry.
1. CCCCCCNC(=O)Nc1ccc(S(=O)(=O)Nc2ccc(CCNC[C@H](O)COc3ccc(O)cc3)cc2)cc1 [L-755507]
2. Cn1cc(C(=O)OCC2CCN(CCNS(C)(=O)=O)CC2)c2ccccc21
3. N[C@](CC1c2ccccc2Oc2ccccc21)(C(=O)O)[C@H]1C[C@@H]1C(=O)O
4. CN(C)C/C=C/C(=O)Nc1ccc(C(=O)N2CCCC(Nc3ncc(Cl)c(-c4c[nH]c5ccccc45)n3)C2)cc1 (centres undefined)
5. C[C@H](NC(=O)CNC(=O)c1cccc(Cl)c1)c1ccccc1

Response line:
1. 1
2. 5
3. 0
4. 12
5. 13

---

Tested on: Fibroblast
Assay: Multiplex assay against human fibroblast
Assay type: toxicity, cell-based
Conditions: 24 h, 10 µM, compound concentration 10 uM, replicate 1
Non-standard residues stand in square brackets, D forms with d. Residues, ends and D or L forms follow the SMILES beside them.
Quantity name: Population Hoechst High Intensity Objects (%)
Numbers only, in %.

Nc1nc(-c2ccco2)c2cnn(Cc3ccccc3F)c2n1
6
CN(C)C(=O)Cn1cc(-c2ccc(-c3nnc4ccccn34)cc2)cn1
5
CCCCC[C@H](O)/C=C/[C@H]1[C@H](O)CC(=O)[C@@H]1CCCCCCC(=O)O [ALPROSTADIL]
2

Go through the list and state Population Hoechst High Intensity Objects (%) for each entry.
1. CC(C)C[C@@H]1NC(=O)[C@@H](C(C)C)NC(=O)[C@@H]2CCCN2C(=O)[C@@H](CC(=O)O)NC(=O)[C@@H](Cc2c[nH]c3ccccc23)NC1=O [BQ-123] (cyclo(L[dW][dD]P[dV]))
2. O=C(O)CCC/C=C\CC1C(O)CC(O)C1/C=C/C(O)COc1cccc(Cl)c1 (stereo not drawn) [CLOPROSTENOL]
3. CN1CCC(C(=O)c2cccc(NC(=O)c3c(F)cc(F)cc3F)n2)CC1
4. CSc1nc(NC2CCCC2)c([N+](=O)[O-])c(NC2CCCC2)n1 [GS-39783]
5. N[C@](CC1c2ccccc2Oc2ccccc21)(C(=O)O)[C@H]1C[C@@H]1C(=O)O

Response line:
[8, 12, 3, 2, 1]

---

Test system: HEK-293T
Test: Multiplex assay against HEK293T
Assay type: toxicity, cell-based
Details: human, 24 h, 10 µM, compound concentration 10 uM, replicate 1
Non-standard residues stand in square brackets, D forms with d. Residues, ends and D or L forms follow the SMILES beside them.
Provide the recorded Population Tubulin-Different-Phenotype (%) for the entries that follow.
Answers are plain numbers, in %.

COc1cc(Nc2ncc3c(n2)-c2ccc(Cl)cc2C(c2c(F)cccc2OC)=NC3)ccc1C(=O)O
64
O=C(Nc1cc(-c2ccccc2)nn1-c1ccccc1F)c1ccc([N+](=O)[O-])cc1
35
Cc1cc(O)c(-c2ccc([C@@H](C)CN(C)C)cc2)c2c1[nH]c(=O)c1sccc12
70
O=c1nc2[nH]c3ccccc3nc-2c(=O)[nH]1
21
CCc1nn2c(C)cc(C)nc2c1Cc1ccc(-c2nnc(C3CCNCC3)o2)cc1
50

Go through the list and state Population Tubulin-Different-Phenotype (%) for each entry.
1. C[C@@H]1CC(=O)Nc2cccc(-c3ccc4c(c3)c(-c3cnn(C)c3)nn4C)c2N1
2. CSc1nc(NC2CCCC2)c([N+](=O)[O-])c(NC2CCCC2)n1
3. C=CCN1C[C@H](C(=O)N(CCCN(C)C)C(=O)NCC)C[C@@H]2c3cccc4[nH]cc(c34)C[C@H]21
4. CC(C)C[C@@H]1NC(=O)[C@@H](C(C)C)NC(=O)[C@@H]2CCCN2C(=O)[C@@H](CC(=O)O)NC(=O)[C@@H](Cc2c[nH]c3ccccc23)NC1=O [BQ-123] (cyclo(L[dW][dD]P[dV]))
5. COc1cc2nc(N3CCN(C(=O)c4ccco4)CC3)nc(N)c2cc1OC.Cl [PRAZOSIN HYDROCHLORIDE]
6. CN1CCC(C(=O)c2cccc(NC(=O)c3c(F)cc(F)cc3F)n2)CC1

Response line:
37
30
48
24
32
41

Go through the list and state Population Tubulin-Different-Phenotype (%) for each entry.
1. CN1C[C@H](C(=O)N[C@]2(C)O[C@@]3(O)[C@@H]4CCCN4C(=O)[C@H](Cc4ccccc4)N3C2=O)C[C@@H]2c3cccc4[nH]cc(c34)C[C@H]21.CS(=O)(=O)O [DIHYDROERGOTAMINE MESYLATE]
2. COc1c(Nc2ccc(S(C)(=O)=O)nc2C)ncnc1OC1CCN(C(=O)OC(C)C)CC1
3. Cn1cc(C(=O)OCC2CCN(CCNS(C)(=O)=O)CC2)c2ccccc21
4. Cl.Cl.OCCOCCN1CCN(C(c2ccccc2)c2ccc(Cl)cc2)CC1 (stereo unspecified) [HYDROXYZINE HYDROCHLORIDE]

Response line:
1. 26
2. 38
3. 50
4. 49

Prompt line: Short answer please: Population Tubulin-Different-Phenotype (%), HEK-293T, entry COc1cc2nc(N3CCN(C(=O)COc4c(OC)cccc4C(C)C)CC3)nc(N)c2cc1OC.Cl.Cl
Response line: 69

Data credit: ChEMBL document CHEMBL5058577
